FYI, the data here is from patent US20230235040A1.

# measurementTarget: T1, hu-IL-36γ (human IL-36γ, N-terminally truncated active form S18-D169) (human, UniProt Q9NZH8 18-169)
# T1 construct: Purification tag cleaved off; Biotinylated where captured; also called hu-IL-36g
# T1 sequence: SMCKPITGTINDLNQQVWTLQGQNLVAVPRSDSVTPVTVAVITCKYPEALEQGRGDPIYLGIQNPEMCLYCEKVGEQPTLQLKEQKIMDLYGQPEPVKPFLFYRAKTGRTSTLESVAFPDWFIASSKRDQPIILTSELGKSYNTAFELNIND
# assayMethodText: ELISA, yeast Fab supernatant, anti-Fab-HRP
measuredEndpoint: ELISA OD450 (OD450)
Express the result in OD450 but write the number alone.

query: Fill blank: measured ELISA OD450 of the binder mAb1.0 Fab (yeast clone culture supernatant) (Fab, V domains shown, Human Fab secreted by the yeast clone, not purified) VH: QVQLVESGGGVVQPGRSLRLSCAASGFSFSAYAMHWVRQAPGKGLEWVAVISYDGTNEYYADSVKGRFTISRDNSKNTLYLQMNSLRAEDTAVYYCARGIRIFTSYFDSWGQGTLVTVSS VL: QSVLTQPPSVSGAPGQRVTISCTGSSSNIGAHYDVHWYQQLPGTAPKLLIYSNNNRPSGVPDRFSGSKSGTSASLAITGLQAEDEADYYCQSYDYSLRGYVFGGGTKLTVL is ____.
result: 2.43

query: Same question for mAb5.0 Fab (yeast clone culture supernatant) (Fab, V domains shown, Human Fab secreted by the yeast clone, not purified) VH: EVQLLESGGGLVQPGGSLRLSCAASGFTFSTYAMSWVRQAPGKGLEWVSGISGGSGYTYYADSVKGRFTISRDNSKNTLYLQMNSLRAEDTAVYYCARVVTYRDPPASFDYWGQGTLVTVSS VL: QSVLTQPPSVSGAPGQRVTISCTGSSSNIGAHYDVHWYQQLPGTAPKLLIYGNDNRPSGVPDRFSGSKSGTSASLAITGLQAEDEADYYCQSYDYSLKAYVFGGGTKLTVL please.
result: 2.08

query: Same question for mAb3.0 Fab (yeast clone culture supernatant) (Fab, V domains shown, Human Fab secreted by the yeast clone, not purified) VH: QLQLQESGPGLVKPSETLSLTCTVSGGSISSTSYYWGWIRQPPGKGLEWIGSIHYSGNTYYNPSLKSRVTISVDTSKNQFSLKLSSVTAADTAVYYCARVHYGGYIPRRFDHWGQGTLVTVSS VL: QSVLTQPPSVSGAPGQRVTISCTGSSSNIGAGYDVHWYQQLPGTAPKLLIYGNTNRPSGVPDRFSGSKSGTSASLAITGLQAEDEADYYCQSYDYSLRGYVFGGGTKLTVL please.
result: 2.11

query: Same question for mAb2.0 Fab (yeast clone culture supernatant) (Fab, V domains shown, Human Fab secreted by the yeast clone, not purified) VH: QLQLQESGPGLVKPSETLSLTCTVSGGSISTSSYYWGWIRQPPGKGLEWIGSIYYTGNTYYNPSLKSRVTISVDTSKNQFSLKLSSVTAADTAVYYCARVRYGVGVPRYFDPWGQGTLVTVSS VL: QSVLTQPPSVSGAPGQRVTISCTGSSSNIGAHYDVHWYQQLPGTAPKLLIYGNDNRPSGVPDRFSGSKSGTSASLAITGLQAEDEADYYCQSYDYSLSGYVFGGGTKLTVL please.
result: 2.5

query: Same question for mAb4.0 Fab (yeast clone culture supernatant) (Fab, V domains shown, Human Fab secreted by the yeast clone, not purified) VH: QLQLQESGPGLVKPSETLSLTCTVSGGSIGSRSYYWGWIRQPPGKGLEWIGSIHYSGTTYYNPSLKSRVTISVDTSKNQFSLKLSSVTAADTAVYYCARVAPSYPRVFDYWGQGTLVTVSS VL: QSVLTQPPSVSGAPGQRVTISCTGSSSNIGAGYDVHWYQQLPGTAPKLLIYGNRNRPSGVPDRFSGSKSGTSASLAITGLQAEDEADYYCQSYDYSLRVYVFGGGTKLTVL please.
result: 2.3
